The values you see were collected from PubChem BioAssay AID488857.

Reported inhibition values follow for various compounds
methodNotes: ASC/caspase-1 reporter retest in S. cerevisiae at one dose, specificity check for NALP1 project (AID 488857)
details: S. cerevisiae ASC/Caspase-1, beta-galactosidase luminescence, 24 h; at 10 µM; hits give high values
Screen size: about 1,400 compounds; about 560 (40%) were called active. The set was probably picked from earlier hits. Some of the results follow.
readoutLabel: inhibition

• CC(C)Oc1ccc(NC(=O)CCC(=O)O)cc1 = 28.5% (inactive)
• O=C1c2ccccc2C(O)N1c1cccnc1 (configuration not stated) = 23.4% (inactive)
• O=C1c2ccccc2C(Nc2ccc(Cl)cn2)N1Cc1ccccc1 (configuration not stated) = 52.1% (active)
• O=C(CN(Cc1ccccc1)S(=O)(=O)c1ccc(S(=O)(=O)N2CCOCC2)cc1)Nc1ccccc1 = 36.3% (inactive)
• COC(=O)C1(C(C[N+](=O)[O-])c2ccc(C)cc2)C(=O)NCC1c1ccco1 (configuration not stated) = 49% (inactive)
• O=C(Nc1ccc(Nc2ccccc2)cc1)C(Cl)Cl = 76.3% (active)
• CC1CCN(C(=O)/C=C/c2ccc(C(C)(C)C)cc2)CC1 = 63.4% (active)
• COc1ccc(CNCC(O)(c2ccccc2)c2ccc(Cl)cc2)cc1 (configuration not stated) = 60% (active)
• Cc1cc2ccccn2c1C(C[N+](=O)[O-])c1ccc(N(C)C)cc1 (configuration not stated) = 21.9% (inactive)
• Cc1ccc(N/C=C/C(=O)C(C)(C)C)c(O)c1 = 34.2% (inactive)
• Cc1cccc(C)c1NC(=O)C(Cl)C(=O)c1ccccc1 (configuration not stated) = 2.6% (inactive)
• CC(C)C(=O)Nc1ccc(Nc2ccccc2)cc1 = 68.2% (active)

###

methodNotes: ASC/caspase-1 reporter retest in S. cerevisiae at one dose, specificity check for NALP1 project (AID 488857)
details: S. cerevisiae ASC/Caspase-1, beta-galactosidase luminescence, 24 h; at 10 µM; hits give high values
About 560 (40%) of roughly 1,400 compounds were called active. The set was probably picked from earlier hits. This is one part of the list.
Reported inhibition values follow for various molecules
readoutLabel: inhibition

* N#Cc1cccc(N=Cc2c(O)ccc3ccccc23)c1 | 30.4% (inactive)
* COc1ccc(OC)c(S(=O)(=O)Nc2ccc(O)c3ccccc23)c1 | 28.8% (inactive)
* COc1cccc(C(=O)N2CCCC(c3nc(-c4cccs4)no3)C2)c1 (stereo unspecified) | 22.3% (inactive)
* O=S(=O)(/N=C/c1c(O)ccc2ccccc12)c1cccs1 | 20.6% (inactive)
* Cc1ccc(C(=O)NCCCNc2ccc(C(F)(F)F)cc2[N+](=O)[O-])cc1 | 46.6% (inactive)
* O=[N+]([O-])c1cc(C(F)(F)F)ccc1NCCc1c[nH]c2ccc(O)cc12 | 70.5% (active)

###

methodNotes: ASC/caspase-1 reporter retest in S. cerevisiae at one dose, specificity check for NALP1 project (AID 488857)
details: S. cerevisiae ASC/Caspase-1, beta-galactosidase luminescence, 24 h; at 10 µM
Hit rate of the full screen: of about 1,400 compounds, about 560 (40%) were called active.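 Rule for the calls: active = mean inhibition over duplicate tests at 10 µM above 50%; inactive = the rest.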 The set was probably picked from earlier hits. Some of the results follow.
Labels: active, inactive

• COc1cccc(NC2=C(Cl)C(=O)OC2OC(=O)c2ccco2)c1 (configuration not stated) = inactive
• Cc1nc(-c2ccccc2)sc1C(=O)CSc1ccccc1 = inactive
• c1cc2c3c(cccc3c1)NC1(CCCCCC1)N2 = inactive
• O=C(Nc1ccc(Cl)c(Cl)c1)Oc1ccc(NC(=O)c2ccco2)cc1 = active
• CCOc1ccc(C(=O)C(CCC(CN(C)C)C(=O)c2ccc(OCC)cc2)CN(C)C)cc1 (configuration not stated) = active
• COc1ccc2oc(=Nc3ccccc3)c(-c3nc4ccccc4[nH]3)cc2c1 = active
• CNCc1ccccc1Sc1cc(O)ccc1O = inactive
• CN(c1ccccc1)c1ccc(/C=C/[N+](=O)[O-])cc1 = active
• c1ccc(Nc2ccccn2)cc1 = inactive
• CCOc1nc(-c2ccccc2Cl)ccc1C#N = inactive
• CCCSc1ccc2nc(-c3ccccc3)cn2c1 = active
• S=C(NC1CCCCC1)NN(c1ccccc1)c1ccccc1 = active
